For each of the molecules below, state its growth.
Tested on: HCT-116 colon
Measurement Description: NCI-60 one-dose screen, 48 h (100 = growth as untreated, 0 = no growth, -100 = all killed)
Condition: 10 µM unless noted
The panel holds about 83,000 compounds, 20% with a hit somewhere; the sample as a whole holds those more often.
State the answer as a number, implicitly in %.

The molecule O=c1cc(/C(=C2/C=CC=N2)c2ccc[nH]2)c2cc(Cl)ccc2o1 showed growth equal to 44.2

The molecule CCOC(=O)c1cc(C(=O)c2ccc(O)c(O)c2)n2ccc(-c3ccn4c(C(=O)c5ccc(O)c(O)c5)cc(C(=O)OCC)c4c3)cc12 showed growth equal to 98.2

The molecule CCN(CC)c1ccc2c(c1)Oc1nc(N)c(C#N)c(N)c1C2Sc1ccc(SC)cc1 (centres undefined) showed growth equal to -27.5

The molecule COc1ccc(S(=O)(=O)N2CCCCCC2)cc1NC(=O)c1[nH]c(C)c2c1CCCCC2=O showed growth equal to 23.8

The molecule COc1ccc(C2C(C#N)=C(N)Oc3n[nH]c(-c4cccs4)c32)cc1I (centres undefined) showed growth equal to 91.9

The molecule O=C(COc1ccc(/C=C2\COc3ccccc3C2=O)cc1)Nc1nccs1 showed growth equal to 38.1

The molecule O=C(/C=C/c1cccc([N+](=O)[O-])c1)c1ccc(O)c(CN2CCN(c3cc4c(cc3F)c(=O)c(C(=O)O)cn4C3CC3)CC2)c1 showed growth equal to -59.5

The molecule COc1cccc(Nc2nc(SC)nc(-c3cccc([N+](=O)[O-])c3)c2C#N)c1 showed growth equal to 28.2

The molecule CN1C(=O)C2(SCC(C(=O)NCc3ccccc3)N2C(=O)C2CCCCC2)c2ccccc21 (centres undefined) showed growth equal to 96.2
